# TEST TARGET: Aryl hydrocarbon receptor (Homo sapiens)
# ASSAY NAME: qHTS assay to identify small molecule that activate the aryl hydrocarbon receptor (AhR) signaling pathway (AID 743085); also: nearly all actives have a fitted effect of over 15% in size;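 as to activation: HG2L7.5c1 human HepG2 liver cells with stably integrated DRE-driven firefly reporter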
# CONDITIONS: HepG2 AhR-luc (HG2L7.5c1), luciferase, 24 h; series mostly up to 70.3 µM
Inconclusive results are not listed. Calls of active or inactive are those of the source. Calls follow the shape of the dose curve; as a rule, active = well fitted activation curve with a large enough effect in the repeat runs; inconclusive = weak or mixed curves; inactive = no such curve, though single readings can be large or run the other way.
Labels: active, inactive

• Nc1ccc2c3c(cccc13)-c1ccccc1-2 = active
• CC(=O)OCC(=O)[C@H]1CC[C@H]2[C@@H]3CC[C@H]4C[C@H](O)CC[C@]4(C)[C@H]3C(=O)C[C@]12C = inactive
• COCCOC(=O)c1ccccc1C(=O)OCCOC = inactive
• CC1(C)C(C=C(Cl)Cl)C1C(=O)OCc1cccc(Oc2ccccc2)c1 (configuration not stated) = inactive
• C[C@@H](Cc1ccccc1)N(C)C = inactive
• Brc1c2ccccc2cc2ccccc12 = inactive
• NC(=O)CN1CC(O)CC1=O (configuration not stated) = inactive
• CCC1(CC)C(=O)NC(=O)N(C)C1=O = inactive
• OC(c1ccccc1)(c1ccccc1)C1CN2CCC1CC2 (configuration not stated) = inactive
• CN1CCCC(=C(c2cccs2)c2cccs2)C1 = inactive
• C[C@]12CC[C@H]3[C@@H](CCC4=C(O)C(=O)CC[C@@H]43)[C@@H]1CC[C@@H]2OC(=O)CCC1CCCC1 = inactive
• Clc1ccccc1-c1ccccc1Cl = inactive

---

# ASSAY NAME: qHTS assay to identify small molecule antagonists of the estrogen related receptor (ERR) signaling pathway (AID 1224819; also: nearly all actives have a fitted effect of over 50% in size)
# CONDITIONS: ERR reporter cell line, luciferase inhibition; series mostly up to 46.1 µM
Records with an inconclusive call do not appear. The source made the active and inactive calls. Calls follow the shape of the dose curve; as a rule, active = well fitted inhibition curve with a large enough effect in the repeat runs; inconclusive = weak or mixed curves; inactive = no such curve, though single readings can be large or run the other way.
Labels: active, inactive

• CN1CCc2cccc(Cl)c2CC1 = inactive
• CCn1cc(C(=O)O)c(=O)c2ccc(C)nc21 = inactive
• CN1CCC[C@@H]1Cc1c[nH]c2ccc(Nc3ncccc3[N+](=O)[O-])cc12 = inactive
• NCCc1ccc(S(=O)(=O)F)cc1 = inactive
• COc1cc(C(O)CN)ccc1O (stereo unspecified) = inactive
• NC(C(=O)O)c1cc(=O)[nH]o1 (stereo unspecified) = inactive
• COc1ccc2c(c1)C13CCCCC1C(C2)N(C)CC3 (stereo unspecified) = inactive
• NCCc1c[nH]c2ccc(C(N)=O)cc12 = inactive
• CC(=O)OCC1=C(C(=O)[O-])N2C(=O)[C@@H](NC(=O)CCC[C@@H](N)C(=O)[O-])[C@H]2SC1.[Zn+2] = inactive
• CO/C=C(/C(=O)OC)c1ccccc1Oc1cc(Oc2ccccc2C#N)ncn1 = active
• C[N+]1(C)CCOC(O)(c2ccc(-c3ccc(C4(O)C[N+](C)(C)CCO4)cc3)cc2)C1 (stereo unspecified) = inactive
• O=C(O)[C@@H]1CCN1 = inactive
• C[N+](C)(C)CC#CCOC(=O)Nc1cccc(Cl)c1 = inactive
• COc1ccc2[nH]c3c(c2c1)CCNC3 = inactive
• C=CCN1CCC23c4c5ccc(O)c4O[C@H]2C(=O)CC[C@@]3(O)C1C5 (stereo partly specified) = inactive
• CCCN1CCc2cc(O)cc3c2[C@H]1Cc1ccc(O)c(O)c1-3 = inactive
• CC(C)[C@H]1CN[C@H](C(=O)O)[C@H]1CC(=O)O = inactive
• NC1CCc2cc(O)c(O)cc2C1 (stereo unspecified) = inactive
• CC1OC1P(=O)(O)O (stereo unspecified) = inactive
• CCCCc1ccc(C(=O)O)nc1 = inactive
• CC(C)(C)OC(=O)NC1[C@H]2CNC[C@@H]12 (stereo partly specified) = inactive
• CN(N=O)c1cc(O)ccc1O = inactive
• COc1cc(OC)c(OC)cc1C=O = inactive
• O=c1ccc2[nH]cc(C3=CCNCC3)c2[nH]1 = inactive
• CCCN(CCC)C1Cc2cc(OC)c(OC)cc2C1 = inactive
• CC(C)NP(=O)(NC(C)C)OP(=O)(NC(C)C)NC(C)C = inactive

---

# TEST TARGET: Acetylcholinesterase (Homo sapiens) (UniProt P22303)
# Sequence (P22303 whole entry, looked up): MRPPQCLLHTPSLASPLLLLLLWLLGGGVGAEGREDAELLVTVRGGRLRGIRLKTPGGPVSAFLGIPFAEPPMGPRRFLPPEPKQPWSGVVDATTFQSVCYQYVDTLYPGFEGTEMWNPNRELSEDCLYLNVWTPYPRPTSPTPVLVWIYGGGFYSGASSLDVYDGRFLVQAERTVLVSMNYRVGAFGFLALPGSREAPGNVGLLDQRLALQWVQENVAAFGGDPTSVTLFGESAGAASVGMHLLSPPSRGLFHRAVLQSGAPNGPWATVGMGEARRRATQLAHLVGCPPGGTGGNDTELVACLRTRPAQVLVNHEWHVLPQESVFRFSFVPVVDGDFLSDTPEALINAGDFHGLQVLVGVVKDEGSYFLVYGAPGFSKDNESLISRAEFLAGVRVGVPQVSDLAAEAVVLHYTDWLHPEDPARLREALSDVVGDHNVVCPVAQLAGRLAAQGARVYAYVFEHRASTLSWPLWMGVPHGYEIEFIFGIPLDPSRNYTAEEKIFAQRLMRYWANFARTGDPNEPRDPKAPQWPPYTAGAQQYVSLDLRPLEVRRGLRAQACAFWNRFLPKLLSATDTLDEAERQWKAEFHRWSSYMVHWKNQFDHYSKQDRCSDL
# ASSAY NAME: Acetylcholinesterase (AChE) small molecule antagonists: enzyme-based qHTS assay with human liver microsomes (AID 1347399); also: nearly all actives have a fitted effect of over 60% in size
# CONDITIONS: qHTS inhibition; series mostly up to 115 µM
Activity calls are given as the source filed them. The call rests on the fitted dose curve.
TEST READOUT: outcome

• O=C(NCc1ncc(C(F)(F)F)cc1Cl)c1c(Cl)cccc1Cl = inactive
• Cc1ccc(C)cc1 = inactive
• O=C(O)CCCC[P+](c1ccccc1)(c1ccccc1)c1ccccc1 = inactive
• C=C(C)[C@H]1CC=C(C)C(=O)C1 = inactive
• Cc1cc(=O)[nH]c(=O)[nH]1 = inactive
• CC(=O)O[C@]1(C(C)=O)CC[C@H]2[C@@H]3C=C(Cl)C4=CC(=O)[C@@H]5C[C@@H]5[C@]4(C)[C@H]3CC[C@@]21C = inactive
• CN(C(=O)CN(CCO)CC(=O)N(C)C(C)(C)Cc1ccccc1)C(C)(C)Cc1ccccc1 = inactive
• CCCCCCCC(=O)OCCCCCC = inactive
• CCCCCCCN = inactive
• CCCCCCCCCCl = inactive
• CC(C)(N)CO = inactive
• C[C@]12CC[C@@H]3c4ccc(O)cc4CC[C@H]3[C@@H]1C[C@@H](O)[C@@H]2O = inactive
• O=C(CCN1CCN(CCO)CC1)N1c2ccccc2Sc2ccc(C(F)(F)F)cc21 = inactive
• CCCCCCCCNC(C)C(O)c1ccc(SC(C)C)cc1 (stereo not drawn) = inactive
• CC/C=C1/OC(=O)c2ccccc21 = inactive
• CCCCCCCCCCCCC = inactive
• NNc1nc(-c2ccc([N+](=O)[O-])cc2)cs1 = inactive
• O=C(OCc1ccccc1)c1ccccc1O = inactive
• C=CC(C)CCCC(C)(C)O (stereo not drawn) = inactive
• Cc1cccc(N)n1 = inactive
• c1cc(OCC2CO2)cc(OCC2CO2)c1 (stereo not drawn) = inactive
• CC1=CC[C@H]2C[C@@H]1C2(C)C = inactive
• CCCCSCCCC = inactive
• C=C(C)C(=O)OCCOP(=O)(O)O = inactive
• CC(=O)OC[C@H]1O[C@@H](n2ncc(=O)[nH]c2=O)[C@H](OC(C)=O)[C@@H]1OC(C)=O = inactive
• COc1cc(CCC(C)=O)ccc1O = inactive
• COCCOCCOCCOCCOCCO = inactive
• O=C(Cl)c1ccccc1[N+](=O)[O-] = inactive

---

# ASSAY NAME: qHTS assay to identify small molecule antagonists of the estrogen receptor alpha (ER-alpha) signaling pathway - cell viability counter screen (AID 743074);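 also: HEK293 cells carrying ER-alpha-UAS-bla reporter stimulated with 17beta-estradiol; nearly all actives have a fitted effect of over 45% in size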
# CONDITIONS: ERalpha-bla HEK293 viability, CellTiter-Glo luminescence, 18 h; series mostly up to 69.4 µM
Inconclusive results are not listed. Activity calls are given as the source filed them. Calls follow the shape of the full dose curve.
Labels: true for active, false for inactive

• NCC(O)c1cccc(O)c1 (centres undefined) = false
• CCN(CC)/[N+]([O-])=N/O = false
• O=C(OCCN1CCCCC1)C(O)(c1ccccc1)c1ccccc1 = false
• C[C@H]1[C@H]2Cc3ccc(O)cc3[C@]1(C)CCN2CCc1ccccc1 = false
• C[C@@H]1[C@@H]2Cc3ccc(O)cc3[C@@]1(C)CCN2CC1CC1 = false
• OC(c1ccccc1)(c1ccccc1)C1CN2CCC1CC2 (centres undefined) = false
• N#CC(C#N)=Cc1cc(O)c(O)c(O)c1 = false
• C=CC[C@]1(O)CC[C@H]2[C@@H]3CCC4=CCCC[C@@H]4[C@H]3CC[C@@]21C = false
• COc1cc([C@@H]2c3cc4c(cc3[C@@H](O)[C@H]3COC(=O)[C@H]23)OCO4)cc(OC)c1O = false
• CNC(=O)OCC[N+](C)(C)C = false
• CCC(=O)O[C@]1(c2ccccc2)CCN(C)C[C@H]1C = false
• CCCCCc1cc(O)c2c(c1)OC(C)(C)c1ccc(C)cc1-2 = true
• CC(=O)OC1CN2CCC1CC2 (centres undefined) = false
• CC1(C)S[C@@H]2[C@H](N)C(=O)N2[C@H]1C(=O)O = false
• NC(=O)CN1CC(O)CC1=O (centres undefined) = false
• Cc1nnc2n1-c1ccc(Cl)cc1C(c1ccccc1)=NC2 = false
• COc1ccc2c(c1)C13CCCC[C@@H]1C(C2)N(C)CC3 (some centres undefined) = false
• [H+].[H+].[Hg+2].[O-]B([O-])[O-].[c-]1ccccc1 = true
• C[C@]12CC[C@H]3[C@@H](CCC4=CC(=O)CC[C@@]43C)[C@@H]1CC[C@H]2O = false
• CC(C)[C@H]1C(=O)N2CCC[C@H]2[C@]2(O)O[C@](NC(=O)[C@@H]3C[C@@H]4c5cccc6[nH]cc(c56)C[C@H]4N(C)C3)(C(C)C)C(=O)N12 = false
• CC(C)CCC(=O)O[C@H]1CC[C@H]2[C@@H]3CCC4=CC(=O)CC[C@]4(C)[C@H]3CC[C@]12C = false
• C[N+]1([O-])[C@@H]2CC[C@H]1CC(OC(=O)C(CO)c1ccccc1)C2 (some centres undefined) = false
• C[C@@H]1[C@@H]2Cc3ccc(O)cc3[C@@]1(C)CCN2CCc1ccccc1 = false
• C[C@]12CC[C@H](OS(=O)(=O)O)CC1=CC[C@@H]1[C@@H]2CC[C@]2(C)C(=O)CC[C@@H]12 = false
• O=C(CCl)c1ccc(Oc2ccc(C(=O)CCl)cc2)cc1 = false
• Clc1ccc2c(c1)C(c1ccccc1)=NCc1nncn1-2 = false
• CN1CCCC(=C(c2cccs2)c2cccs2)C1 = false
• CCc1cc(OC)c(C[C@@H](C)N)cc1OC = false
• C[N+]1(C)CCCCC1COC(=O)C(O)(c1ccccc1)c1ccccc1 (centres undefined) = false
• CNC(C)Cc1ccccc1 (centres undefined) = false
• C[C@]12C[C@H]3S[C@H]3C[C@@H]1CC[C@@H]1[C@@H]2CC[C@]2(C)[C@@H](O)CC[C@@H]12 = false
• C=CCN(C1=NCCN1)c1c(Cl)cccc1Cl = false
• CC(C)(O)[C@@H]1[C@H]2OC(=O)[C@@H]1[C@]1(O)C[C@H]3O[C@]34C(=O)O[C@H]2[C@]14C = false
• O=C(NC(=O)c1c(F)cccc1F)Nc1ccc(Cl)c(Oc2ncc(C(F)(F)F)cc2Cl)c1 = false
